tested-target: GST-RIPK1 (recombinant GST-RIPK1 kinase domain (residues 1-327)) (Homo sapiens)
Construct: recombinant GST-RIPK1 kinase domain (residues 1-327) enzyme
Sequence (Q13546 1-327): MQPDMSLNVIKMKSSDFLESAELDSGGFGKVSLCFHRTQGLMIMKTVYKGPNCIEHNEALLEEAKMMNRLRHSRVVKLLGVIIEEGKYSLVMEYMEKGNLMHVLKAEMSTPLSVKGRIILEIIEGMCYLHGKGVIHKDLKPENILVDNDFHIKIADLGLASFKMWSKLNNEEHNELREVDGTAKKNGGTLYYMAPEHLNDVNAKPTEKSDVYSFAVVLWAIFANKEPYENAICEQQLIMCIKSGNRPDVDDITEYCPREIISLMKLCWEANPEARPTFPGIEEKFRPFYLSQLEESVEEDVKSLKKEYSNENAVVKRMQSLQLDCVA
assay-protocol: RIPK1-ADP-Glo enzymatic assay
condition-notes: 25 nM GST-RIPK1, 300 μM ATP, 3 μM dephosphorylated-MBP; 30 minutes pre-incubation, 150 minutes reaction; ten-point titration
pIC50: −log10 of the molar value.
measurement-name: pIC50

Use the examples below as a reference point.
> print(dat)
                                    compound                             tested.target  recorded.number
 1  CCC(C#N)(CC)C(=O)N1C[C@@H]2C[C@H]1c1cncc(C#N)c1O2  GST-RIPK1 (recombinant GST-RIPK1 kinase domain (residues 1-327)) (Homo sapiens)             6.44
 2  Cc1ncc2c(c1F)O[C@H]1C[C@@H]2N(C(=O)C23CCC(C(F)(F)F)(CC2)C3)C1  GST-RIPK1 (recombinant GST-RIPK1 kinase domain (residues 1-327)) (Homo sapiens)             7.33
 3  O=C(N1C[C@@H]2C[C@H]1c1cncc(C#Cc3cnc4ccoc4c3)c1O2)C12CCC(C(F)(F)F)(CC1)C2  GST-RIPK1 (recombinant GST-RIPK1 kinase domain (residues 1-327)) (Homo sapiens)             7.77
 4  CC1(C(=O)N2C[C@@H]3C[C@H]2c2cncc(C#N)c2O3)CC1(F)F (single isomer, unassigned) [Compound 1-28]  GST-RIPK1 (recombinant GST-RIPK1 kinase domain (residues 1-327)) (Homo sapiens)             6.70
 5  O=C(N1C[C@@H]2C[C@H]1c1cncc(C#CC3CC3)c1O2)C12CCC(F)(CC1)C2  GST-RIPK1 (recombinant GST-RIPK1 kinase domain (residues 1-327)) (Homo sapiens)             7.49
 6  CC(C(=O)N1C[C@@H]2C[C@H]1c1cncc(C#N)c1O2)(C(F)F)C1CC1 (single isomer, unassigned) [Compound 1-88]  GST-RIPK1 (recombinant GST-RIPK1 kinase domain (residues 1-327)) (Homo sapiens)             7.02
 7  COc1cccc(C#Cc2cncc3c2O[C@H]2C[C@@H]3N(C(=O)C34CCC(F)(CC3)C4)C2)c1  GST-RIPK1 (recombinant GST-RIPK1 kinase domain (residues 1-327)) (Homo sapiens)             7.89
 8  CC1(C(=O)N2C[C@@H]3C[C@H]2c2cncc(Cl)c2O3)CCC1  GST-RIPK1 (recombinant GST-RIPK1 kinase domain (residues 1-327)) (Homo sapiens)             6.64
 9  CC(C)(OC(F)(F)F)C(=O)N1C[C@@H]2C[C@H]1c1cncc(C#N)c1O2  GST-RIPK1 (recombinant GST-RIPK1 kinase domain (residues 1-327)) (Homo sapiens)             6.79
10  C#Cc1cncc2c1O[C@H]1C[C@@H]2N(C(=O)C(C)(C)C(F)F)C1  GST-RIPK1 (recombinant GST-RIPK1 kinase domain (residues 1-327)) (Homo sapiens)             6.78

I. O=C(N1C[C@@H]2C[C@H]1c1cncc(F)c1O2)C12CCC(C1)C2
II. N#Cc1cncc2c1O[C@H]1C[C@@H]2N(C(=O)C23CCC(CC2)C3)C1
III. COc1ccccc1C#Cc1cncc2c1O[C@H]1C[C@@H]2N(C(=O)C23CCC(C(F)(F)F)(CC2)C3)C1
IV. CC1(C(=O)N2C[C@@H]3C[C@H]2c2cncc(C#N)c2O3)CC1
V. CC(C)(CC(F)(F)F)C(=O)N1C[C@@H]2C[C@H]1c1cncc(C#N)c1O2
## Input Order field: pIC50 | Direction: descending (largest first) Put the labels in the requested order and write them down.
## Output II, III, I, V, IV
(II: 7.96, III: 7.14, I: 6.81, V: 6.32, IV: 6.11)
